# target_desc: UniProt P56718
# Sequence (P56718 whole entry): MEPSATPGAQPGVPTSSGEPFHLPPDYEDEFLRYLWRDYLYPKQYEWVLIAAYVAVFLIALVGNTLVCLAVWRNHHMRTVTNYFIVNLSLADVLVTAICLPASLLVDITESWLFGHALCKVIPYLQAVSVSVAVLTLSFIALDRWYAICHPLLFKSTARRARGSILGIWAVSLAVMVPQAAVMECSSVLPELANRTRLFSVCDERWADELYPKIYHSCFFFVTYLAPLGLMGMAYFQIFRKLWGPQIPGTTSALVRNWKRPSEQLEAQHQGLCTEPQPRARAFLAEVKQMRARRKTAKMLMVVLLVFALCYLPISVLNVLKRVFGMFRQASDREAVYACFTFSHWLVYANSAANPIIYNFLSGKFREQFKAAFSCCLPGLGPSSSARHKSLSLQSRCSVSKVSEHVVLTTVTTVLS
# test_details: FLIPR antagonist affinity at cloned rat OX1 receptor (RBL cells)
# experimental_context: read-out: fpKi
experimental_endpoint: Ki

[[record]]
compound = "Cc1nc(C(=O)N2CCCC[C@H]2Cc2cn3cc(F)cc(C)c3n2)c(-c2ccccc2)s1 [Example 31]"
target_desc = "UniProt P56718"
result = "1 to 5.01 nM"


// next item, Ki requested
Prompt: Could you share which Ki value was measured for Cc1nc(C(=O)N2CCCC[C@H]2Cc2cn3cccc(F)c3n2)c(-c2ccccc2)s1 [Example 13] ?
Completion: 1 to 5.01 nM
